Values were extracted from the supplement of paper PMC7411054.

- System: HepG2-TP53BP1-CLTA
- procedure summary: phenotypically active (imaging signature differs from DMSO and reproducible) at any of 0.3-9 uM (binary (1 = active, 0 = inactive)); higher = active
- assay setup: treatment time: 24 h
Permitted responses: YES for active, NO for inactive

[[record]]
compound = "Nc1nnc(Sc2ncc([N+](=O)[O-])s2)s1"
discrete_label = "NO"


Turning now to a further compound:
Given O=C(NCCCNc1nc(Nc2cccc(NC(=O)N3CCCC3)c2)ncc1I)c1cccs1 , state the outcome it received in this test.
YES

---

- Tested on: A549-TUBA1B-RELA
- procedure summary: lowest phenotypically active concentration; higher = less potent
- assay setup: treatment time: 24 h
readout label: lowest phenotypically active concentration

[[record]]
compound = "CN1C(=O)/C(=C2/Nc3ccccc3/C2=N/O)c2ccc(Br)cc21"
result = "≤ 0.3 µM"

[[record]]
compound = "CC(C)OC(=O)c1cc2c(OCC(O)CNC(C)(C)C)cccc2[nH]1 (stereo not given)"
result = "3 µM"

[[record]]
compound = "C[C@@H]1CN(CC(=O)Nc2ccc3c(c2)Cc2cccc(-c4cc(=O)cc(N5CCOCC5)o4)c2S3)C[C@H](C)O1"
result = "9 µM"


Look up lowest phenotypically active concentration for this compound: Clc1ccc2c(c1)C(N1CCNCC1)=Nc1ccccc1O2 [amoxapine]
3 µM

# input compound: COc1cc2nc(N3CCCN(C)CC3)nc(NC3CCN(Cc4ccccc4)CC3)c2cc1OC ; wanted: its lowest phenotypically active concentration
≤ 0.3 µM

---

- Tested on: WPMY1-ACTB-RAB5A
- procedure summary: phenotypically active (imaging signature differs from DMSO and reproducible) at any of 0.3-9 uM (binary (1 = active, 0 = inactive)); higher = active
- assay setup: treatment time: 24 h
Result category, one only: active, inactive

# lookup: test call for CC(=O)Nc1ccc(C(=O)Nc2ccccc2N)cc1
active

What outcome does the record of this test show for CC1(C)CCC(c2ccc(Cl)cc2)=C(CN2CCN(c3ccc(C(=O)NS(=O)(=O)c4ccc(N[C@H](CCN5CCOCC5)CSc5ccccc5)c(S(=O)(=O)C(F)(F)F)c4)cc3)CC2)C1 ?
inactive

Query: recorded result category for CC[C@]12CCCN3CCc4c(n(c5ccccc45)[C@@](O)(C(=O)OC)C1)[C@@H]32 in this test
inactive

Hi, sorry to bother you, what did the test record for CC[C@]12CCCN3CCc4c(n(c5ccccc45)C(=O)C1)[C@@H]32 [Eburnamonine (-)] ?
active

Hi, sorry to bother you, what did the test record for Cc1ccc(C(=O)N(CCCN)[C@@H](c2oc3cc(Cl)ccc3c(=O)c2Cc2ccccc2)C(C)C)cc1 ?
active

---

The following molecules are shown together with reported lowest phenotypically active concentration values.
- Tested on: WPMY1-ACTB-RAB5A
- procedure summary: lowest phenotypically active concentration; higher = less potent
- assay setup: treatment time: 24 h
// units = µM; emit number, no label

[[record]]
molecule = "Clc1ccc2c(c1)C(N1CCNCC1)=Nc1ccccc1O2 [amoxapine]"
result_number = 9


Which measured lowest phenotypically active concentration value corresponds to CC(C)(C)c1cc(NC(=O)Nc2ccc(-c3cn4c(n3)sc3cc(OCCN5CCOCC5)ccc34)cc2)no1 [quizartinib] ?
3

Item under review: Cc1c(NC(=O)OC[C@@H]2COCCN2)cn2ncnc(Nc3ccc4c(cnn4Cc4cccc(F)c4)c3)c12 . Reported lowest phenotypically active concentration?
3

Need lowest phenotypically active concentration of C=CC(=O)Nc1cccc(Nc2nc(Nc3ccc(OCCOC)cc3)ncc2F)c1 , thanks.
3

Need lowest phenotypically active concentration, item CC(C)(C)c1nc(-c2cccc(NS(=O)(=O)c3c(F)cccc3F)c2F)c(-c2ccnc(N)n2)s1 [dabrafenib]
1

---

- Tested on: A549-ACTB-RAB5A
- procedure summary: phenotypically active (imaging signature differs from DMSO and reproducible) at any of 0.3-9 uM (binary (1 = active, 0 = inactive)); higher = active
- assay setup: treatment time: 24 h
Counter-ions that a name gives are not always drawn.
A collection of molecules and their measured phenotypically active
Just the number, please, no unit after it.

[[record]]
molecule = "COc1ccc(Cl)cc1NC(=O)Nc1cc(C)nc2ccccc12"
measured_target = "A549-ACTB-RAB5A"
result_number = 1

[[record]]
molecule = "COC(=O)c1c(-c2cc(OC)c(OC)c(OC)c2)c2ccnc(OCc3ncccn3)c2c(=O)n1Cc1ccnc(C)c1 [T 0156 hydrochloride]"
measured_target = "A549-ACTB-RAB5A"
result_number = 0

[[record]]
molecule = "CCCCc1c(O)n(-c2ccccc2)n(-c2ccccc2)c1=O"
measured_target = "A549-ACTB-RAB5A"
result_number = 0

[[record]]
molecule = "CCn1c(=O)n([C@H]2CCCN(c3nccc(-c4cc5ccccc5o4)n3)C2)c2ccccc21"
measured_target = "A549-ACTB-RAB5A"
result_number = 1

[[record]]
molecule = "CC(C)NCC(O)c1ccc(O)c(O)c1 (configuration not stated) [Isoproterenol hydrochloride]"
measured_target = "A549-ACTB-RAB5A"
result_number = 0


For the record O=C(O)CCCc1ccccc1 [Sodium 4-Phenylbutyrate] , what value of phenotypically active is listed for A549-ACTB-RAB5A?
0

Please state recorded phenotypically active (tested on A549-ACTB-RAB5A) of CN(C)c1ccc(C(=O)NCCCCCCC(=O)NO)cc1
1

---

The following molecules are shown together with reported phenotypically active values.
- Tested on: A549-TUBA1B-RELA
- procedure summary: phenotypically active (imaging signature differs from DMSO and reproducible) at any of 0.3-9 uM (binary (1 = active, 0 = inactive)); higher = active
- assay setup: treatment time: 24 h
Counter-ions that a name gives are not always drawn.
Give the figure by itself; no unit, no explanation.

[[record]]
molecule = "Nc1ncnc2c1c(-c1ccc(Cl)cc1)nn2-c1cccc(-c2cnnn2Cc2cccc(-c3ccccc3)c2)c1"
result_number = 0


Any idea what phenotypically active came out for CC(C)[N+](C)(CCOC(=O)C1c2ccccc2Oc2ccccc21)C(C)C on A549-TUBA1B-RELA?
0

Lab note: need phenotypically active with A549-TUBA1B-RELA for entry CCCCCCCCCCCCCCCC[n+]1ccn(Cc2ccccc2)c1C , please look it up.
1

Please state recorded phenotypically active (tested on A549-TUBA1B-RELA) of O=C(O)[C@H]1CCCC[C@H]1C(=O)N1CCc2ccccc2[C@H]1CN1C(=O)c2ccccc2C1=O
0

Kindly state the measured phenotypically active obtained for CCCCCCC(=O)OC1CC(C)(C)NC(C)(C)C1 [TMPH hydrochloride] with A549-TUBA1B-RELA.
0

---

# maps each entry to its lowest phenotypically active concentration
- Tested on: HepG2-TP53BP1-CLTA
- procedure summary: lowest phenotypically active concentration; higher = less potent
- assay setup: treatment time: 24 h
Where a name gives a salt, the structure may show the parent alone.
Answer with a number only, understood to be in µM.

Form entry - test system: HepG2-TP53BP1-CLTA; read-out: lowest phenotypically active concentration; molecule: O=C(CCCCCCC(=O)Nc1ccccc1)NO
3

Entry O=C1Cc2cc(CCN3CCN(c4nsc5ccccc45)CC3)c(Cl)cc2N1 , system HepG2-TP53BP1-CLTA: what lowest phenotypically active concentration was measured?
9

Tell me reported lowest phenotypically active concentration for C#Cc1cccc(Nc2ncnc3cc(OCCOC)c(OCCOC)cc23)c1 , tested with HepG2-TP53BP1-CLTA.
9

Field: lowest phenotypically active concentration (HepG2-TP53BP1-CLTA). Entry: CNCCC(Oc1ccc(C(F)(F)F)cc1)c1ccccc1 (centres undefined)
9

Hello, I am looking for reported lowest phenotypically active concentration with HepG2-TP53BP1-CLTA for COc1cc(C)c(Sc2cnc(NC(=O)c3ccc(CNC(C)C(C)(C)C)cc3)s2)cc1C(=O)N1CCN(C(C)=O)CC1 (centres undefined) . Could you help?
3

API: value(readout= lowest phenotypically active concentration, system= HepG2-TP53BP1-CLTA, query= CCCCc1oc2ccccc2c1C(=O)c1cc(I)c(OCCN(CC)CC)c(I)c1 )
9

Requested read-out lowest phenotypically active concentration, target or system HepG2-TP53BP1-CLTA, entry Cc1c(CN2CCN(C(=O)[C@H](C)O)CC2)sc2c(N3CCOCC3)nc(-c3cnc(N)nc3)nc12
1

Reported lowest phenotypically active concentration for HepG2-TP53BP1-CLTA, given Cc1ccc(NC(=O)CCCCCC(=O)Nc2ccccc2N)cc1 ?
3

Provide the documented lowest phenotypically active concentration with HepG2-TP53BP1-CLTA as the system for COc1ccc2c(Oc3ccc(NC(=O)c4c(C)n(CC(C)(C)O)n(-c5ccccc5)c4=O)nc3)ccnc2c1
9

GET /values?readout=lowest phenotypically active concentration&system=HepG2-TP53BP1-CLTA&item= O=C(Nc1ccccc1)N1CCN(c2nc(-c3ccccc3)ns2)CC1
9

So what lowest phenotypically active concentration did COc1ccccc1OCCNCC(O)COc1cccc2[nH]c3ccccc3c12 (centres undefined) get with HepG2-TP53BP1-CLTA?
9

Form: Entry = CCOC(=O)Nc1cc(-c2ccc(C)c(NS(C)(=O)=O)c2)nn2c(C)nnc12 | System = HepG2-TP53BP1-CLTA | lowest phenotypically active concentration = ____
1

Checklist item: lowest phenotypically active concentration tested on HepG2-TP53BP1-CLTA, entry CCCCCCCCCCCCCCCC[n+]1ccn(Cc2ccccc2)c1C , value?
1

Identify the measured lowest phenotypically active concentration of Cc1cc(CS(=O)(=O)c2ccccc2)cc(OCc2ccc(CN3CCC[C@@H]3CO)cc2)c1 [PF 543 hydrochloride] for HepG2-TP53BP1-CLTA.
9

Tell me reported lowest phenotypically active concentration for CC(C)n1nc(-c2cc3cc(O)ccc3[nH]2)c2c(N)ncnc21 , tested with HepG2-TP53BP1-CLTA.
3

What value of lowest phenotypically active concentration on HepG2-TP53BP1-CLTA does CCCCCCCCCCNCCSSCc1ccc(Cl)cc1 have?
9
